Values were extracted from patent US6218406A.

Consider the following compounds and their measured IC50 readings.
- Tested System: farnesyl transferase (Homo sapiens, UniProt P49354+P49356)
- Protocol Notes: Farnesyl transferase inhibition, [3H]-farnesylation of biotinylated K-ras C-terminal peptide (SPA assay)
- Assay type: biochemical
- Setup Conditions: K-Ras substrate; 60 min at 37° C.; mean of two IC50 values; read-out: In vitro inhibitory activity (K-Ras) IC50
Measured Parameter: IC50

compound="C=C(C(=O)N1C[C@@H]2[C@]3(c4cccc(Br)c4)CC[C@@H](c4ccccc43)[C@]2(C(=O)OC)C1)c1ccccc1OC (racemic)" experimental_value="319 nM"
compound="C=C(C(=O)N1C[C@@H]2[C@]3(c4cccc(C)c4)CC[C@@H](c4ccccc43)[C@]2(C(=O)O)C1)c1ccccc1OC (racemic)" experimental_value="53 nM"
compound="C=C(C(=O)N1C[C@@H]2[C@]3(c4ccc(Cl)c(F)c4)CC[C@@H](c4ccccc43)[C@]2(C(=O)OC)C1)c1ccccc1OC (racemic)" experimental_value="379 nM"
compound="C=C(C(=O)N1C[C@@H]2[C@]3(c4ccc(OC)cc4)CC[C@@](C)(c4ccccc43)[C@@]2(C(=O)O)C1)c1ccccc1OC (racemic)" experimental_value="< 19 nM"
compound="C=C(C(=O)N1C[C@H]2[C@@]3(c4ccc(C)cc4)CC[C@H](c4ccccc43)[C@@]2(C(=O)NCc2ccncc2)C1)c1ccccc1OC (relative stereo)" experimental_value="140 nM"
compound="C=C(C(=O)N1C[C@@H]2[C@]3(c4ccc(Cl)c(F)c4)CC[C@@H](c4ccccc43)[C@]2(C(=O)O)C1)c1ccccc1OC (racemic)" experimental_value="101 nM"
compound="C=C(C(=O)N1CC2C3(c4ccc(OC)cc4)CCC(c4ccccc43)C2(C(=O)NC(C(=O)O)c2ccccc2)C1)c1ccccc1OC (stereo not shown)" experimental_value="18 nM"
compound="C=C(C(=O)N1C[C@@H]2[C@]3(c4ccc(C)cc4)CC[C@@H](c4ccccc43)[C@]2(C(=O)NOCc2ccccc2)C1)c1ccccc1OC (racemic)" experimental_value="210 nM"
compound="C=C(C(=O)N1C[C@H]2[C@@]3(c4ccc(C)cc4)CC[C@H](c4ccccc43)[C@@]2(C(=O)NNc2ccccc2C)C1)c1ccccc1OC (relative stereo)" experimental_value="140 nM"
compound="C=C(C(=O)N1C[C@@H]2[C@]3(c4ccc(F)cc4)CC[C@@H](c4ccccc43)[C@]2(C(=O)O)C1)c1ccccc1OC (racemic)" experimental_value="40 nM"
compound="C=C(C(=O)N1C[C@H]2[C@@]3(c4ccc5c(c4)OCCO5)CC[C@H](c4ccccc43)[C@@]2(C(=O)NCc2cccnc2)C1)c1ccccc1OC (single isomer, unassigned) [Example 34]" experimental_value="< 20 nM"
compound="C=C(C(=O)N1C[C@H]2[C@@]3(c4ccc(C)cc4)CC[C@H](c4c(OC)cccc43)[C@@]2(C(=O)O)C1)c1ccccc1OC (single isomer, unassigned)" experimental_value="< 19 nM"
compound="C=C(C(=O)N1C[C@@H]2[C@@]3(c4ccc(C)cc4)CC[C@@H](c4ccccc43)[C@]2(C(=O)O)C1)c1ccccc1OC (racemic)" experimental_value="45 nM"
compound="C=C(C(=O)N1C[C@@H]2[C@]3(c4ccc(C)cc4)CC[C@@H](c4ccccc43)[C@]2(C(=O)NO)C1)c1ccccc1OC (racemic)" experimental_value="360 nM"
compound="C=C(C(=O)N1C[C@@H]2[C@]3(c4ccc(C)cc4)CC[C@@H](c4ccccc43)[C@]2(C(=O)OC)C1)c1ccccc1OC (racemic)" experimental_value="305 nM"
compound="C=C(C(=O)N1C[C@@H]2[C@]3(c4ccc5c(c4)CCO5)CC[C@@H](c4ccccc43)[C@]2(C(=O)O)C1)c1ccccc1OC (racemic)" experimental_value="36 nM"
compound="C=C(C(=O)N1C[C@H]2[C@@]3(c4ccc(C)cc4)CC[C@H](c4ccccc43)[C@@]2(C(=O)NCc2cccnc2)C1)c1ccccc1OC (relative stereo) [Example 17]" experimental_value="235 nM"
compound="C=C(C(=O)N1C[C@H]2[C@@]3(c4ccc(C)cc4)CC[C@H](c4ccccc43)[C@@]2(C(=O)O)C1)c1ccccc1OC (single isomer, unassigned) [Example 3]" experimental_value="28 nM"
compound="C=C(C(=O)N1C[C@@H]2[C@]3(c4ccc(C(F)(F)F)cc4)CC[C@@H](c4ccccc43)[C@]2(C(=O)NCc2cccnc2)C1)c1ccccc1OC (relative stereo)" experimental_value="83 nM"
compound="C=C(C(=O)N1C[C@@H]2[C@]3(c4ccc(C)c(C)c4)CC[C@@H](c4ccccc43)[C@]2(C(=O)O)C1)c1ccccc1OC (racemic)" experimental_value="98 nM"
compound="C=C(C(=O)N1C[C@@H]2[C@]3(c4ccc5c(c4)OCCO5)CC[C@@H](c4ccccc43)[C@]2(C(=O)NCc2cccs2)C1)c1ccccc1OC (relative stereo)" experimental_value="120 nM"
compound="C=C(C(=O)N1C[C@@H]2[C@]3(c4cccc(F)c4)CC[C@@H](c4ccccc43)[C@]2(C(=O)O)C1)c1ccccc1OC (racemic)" experimental_value="5 nM"
